- Test system: MDA-MB-435
- TEST_PROTOCOL: NCI tumour cell line growth inhibition, 48 h
Activity calls are given as the source filed them. Cut-off read from the data, not from the text of the source: active = GI50 up to about 1.1 µM and inactive = higher.
Measured GI50, listed per entry.

Observe how each entry below is paired with its result.
>>> reported("COC(=O)C1=NN2c3ccccc3CN([C@@H](C)c3ccccc3)C(=O)[C@@H]2[C@H]1c1ccccc1")
"> 100 µM (inactive)"
>>> reported("CCOC1(OCC)C2C=CC1C(COS(=O)(=O)c1ccc(C)cc1)C2COS(=O)(=O)c1ccc(C)cc1 (centres undefined)")
"29 µM (inactive)"
>>> reported("COC(=O)C1=C(O)C(C(=O)OC)[C@@]2(O)[C@@H](C(=O)OC)C(c3ccc(OC(=O)/C=C/c4ccccc4)cc3)C[C@@H]1[C@@H]2C(=O)OC (some centres undefined)")
"4.83 µM (inactive)"
>>> reported("O=C1OC2c3ccccc3C(=O)C2(c2ccccc2)N1c1ccccc1 (centres undefined)")
"> 200 µM (inactive)"
>>> reported("COc1ccc(/N=C/N(C)C)c(C)c1")
"6.08 µM (inactive)"
>>> reported("O=C(/N=C1/OC(CN2CCOCC2)CN1C(=O)Nc1ccccc1)Nc1ccccc1 (centres undefined)")
"> 100 µM (inactive)"
>>> reported("Cc1nnc2sc(-c3ccc(N)cc3)nn12")
"> 100 µM (inactive)"
>>> reported("O=C1CSCC(=O)Nc2ccccc2N1")
"> 100 µM (inactive)"

Query (compound): COc1ccc([N+](=O)[O-])c2c(NCC(O)CO)ccnc12 (centres undefined) ; field requested: GI50
> 100 µM (inactive)
